Test system: MDA-MB-468
Test: NCI in vitro anti-tumor screening, 1 μM, SRB
Type: cell-based, human
Settings: c = 1 μM; MDA-MB-468 (Breast cancer); two days
So I've got a bunch of compounds here, and I need their Percentage cell growth values.
Field: value (include unit after the number)

Challenge: What value of measured Percentage cell growth is listed for Nc1nc2c(c3ccncc13)C(c1ccc(Br)cc1)Cc1ccncc1-2 (stereo not shown) ?
Response given: 87.6%

Challenge: Would you mind telling me what Percentage cell growth value was observed for COc1cccc(-c2cc3ccncc3c3nc(N)c4cnccc4c23)c1OC ?
Response given: 81.5%

Challenge: # lookup: Percentage cell growth of COc1cc(-c2cc3ccncc3c3nc(N)c4cnccc4c23)cc(OC)c1OC
Response given: −23.6%

Challenge: Percentage cell growth lookup needed for Nc1nc2c3cnccc3cc(-c3ccco3)c2c2ccncc12 , thanks.
Response given: 35.6%

====

Tested on: MALME-3M
Test: NCI in vitro anti-tumor screening, 1 μM, SRB
Type: cell-based, human
Details: c = 1 μM; MALME-3M (Melanoma); two days
readout_name: Percentage cell growth (%)
All answers are understood in %, so give the number only.

Challenge: I have this compound here, COc1cccc(-c2cc3ccncc3c3nc(N)c4cnccc4c23)c1OC , and I need its recorded Percentage cell growth.
Response given: 123.8

Challenge: # input compound: Nc1nc2c(c3ccncc13)C(c1ccc(Br)cc1)Cc1ccncc1-2 (stereo not shown) ; wanted: its Percentage cell growth
Response given: 98.2

Challenge: # lookup: Percentage cell growth of Nc1nc2c3cnccc3cc(-c3ccco3)c2c2ccncc12
Response given: 59.7

Challenge: Item under review: COc1cc(-c2cc3ccncc3c3nc(N)c4cnccc4c23)cc(OC)c1OC . Reported Percentage cell growth?
Response given: 35.5

====

Tested on: SK-MEL-5
Experiment: NCI in vitro anti-tumor screening, 1 μM, SRB
Assay type: cell-based, human
Conditions: c = 1 μM; SK-MEL-5 (Melanoma); two days
Please go through the items and note down their Percentage cell growth.
Value expressed in %; do not type the unit.

Challenge: Any idea what Percentage cell growth came out for Nc1nc2c3cnccc3cc(-c3ccco3)c2c2ccncc12 on SK-MEL-5?
Response given: 20.0

Challenge: Give the reported Percentage cell growth for COc1cc(-c2cc3ccncc3c3nc(N)c4cnccc4c23)cc(OC)c1OC (system: SK-MEL-5).
Response given: 2.2

Challenge: Give recorded Percentage cell growth with SK-MEL-5 for the following compound: Nc1nc2c(c3ccncc13)C(c1ccc(Br)cc1)Cc1ccncc1-2 (stereo not shown)
Response given: 86.2

Challenge: Find Percentage cell growth (SK-MEL-5) for the entry COc1cccc(-c2cc3ccncc3c3nc(N)c4cnccc4c23)c1OC
Response given: 86.3

====

Test system: Leukemia cell lines
Assay: NCI in vitro anti-tumor screening, 1 μM, mean of leukemia lines
Format: cell-based, human
Settings: c = 1 μM
Would you kindly list Percentage cell growth, Arithmetic mean for each of these molecules?
Write the value in % as a bare number.

Challenge: Item COc1cc(-c2cc3ccncc3c3nc(N)c4cnccc4c23)cc(OC)c1OC has what recorded Percentage cell growth, Arithmetic mean?
Response given: 12.3

Challenge: Percentage cell growth, Arithmetic mean for COc1cccc(-c2cc3ccncc3c3nc(N)c4cnccc4c23)c1OC ?
Response given: 92.1

Challenge: Param item = Nc1nc2c3cnccc3cc(-c3ccco3)c2c2ccncc12 ; retrieve measured Percentage cell growth, Arithmetic mean.
Response given: 24.6

Challenge: Using the record for Nc1nc2c(c3ccncc13)C(c1ccc(Br)cc1)Cc1ccncc1-2 (stereo not shown) , report its Percentage cell growth, Arithmetic mean.
Response given: 73.8
